// data source = paper PMC10786891

Target: T1, EsCas13d, nuclease-dead (Eubacterium siraeum, UniProt B0MS50, R295A;H300A;R849A;H854A)
T1 sequence: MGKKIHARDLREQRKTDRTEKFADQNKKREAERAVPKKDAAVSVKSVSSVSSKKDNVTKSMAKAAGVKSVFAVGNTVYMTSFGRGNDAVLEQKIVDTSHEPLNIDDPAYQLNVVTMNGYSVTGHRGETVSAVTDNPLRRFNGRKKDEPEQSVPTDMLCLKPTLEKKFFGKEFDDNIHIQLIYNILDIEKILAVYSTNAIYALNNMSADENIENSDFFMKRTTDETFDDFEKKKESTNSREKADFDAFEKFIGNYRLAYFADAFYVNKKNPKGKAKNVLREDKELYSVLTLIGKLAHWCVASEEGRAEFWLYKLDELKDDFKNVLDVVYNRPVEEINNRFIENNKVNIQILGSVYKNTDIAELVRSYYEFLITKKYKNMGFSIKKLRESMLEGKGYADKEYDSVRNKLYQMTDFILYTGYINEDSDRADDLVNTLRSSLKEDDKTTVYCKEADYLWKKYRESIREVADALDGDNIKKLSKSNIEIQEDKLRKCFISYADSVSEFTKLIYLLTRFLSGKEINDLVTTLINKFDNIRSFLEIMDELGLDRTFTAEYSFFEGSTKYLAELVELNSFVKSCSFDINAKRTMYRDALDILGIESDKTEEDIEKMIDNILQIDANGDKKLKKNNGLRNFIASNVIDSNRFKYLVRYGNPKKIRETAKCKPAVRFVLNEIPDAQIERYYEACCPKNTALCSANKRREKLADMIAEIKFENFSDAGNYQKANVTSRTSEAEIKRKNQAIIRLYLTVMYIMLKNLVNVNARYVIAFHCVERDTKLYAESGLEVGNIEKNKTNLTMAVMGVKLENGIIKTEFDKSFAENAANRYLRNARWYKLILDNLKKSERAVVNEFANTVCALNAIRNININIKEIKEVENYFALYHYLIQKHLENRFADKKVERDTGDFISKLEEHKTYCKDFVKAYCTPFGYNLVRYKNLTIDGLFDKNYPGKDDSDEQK
Assay: BLI; crRNA (strand 1, pre-loaded); Mg2+; 40 mM Tris-HCl pH 7.5, 150 mM NaCl, 6 mM MgCl2, 1 mM DTT, 0.1% Tween-20, 0.2 mg/ml BSA; temperature not stated
Details: tags: His6-TwinStrep-SUMO cleaved; label: 3' biotin on strand 2
Output fulfilled for kon not less than 200000 M⁻¹ s⁻¹; output not fulfilled otherwise.

QUERY: Hi, just wondering whether target 1 A18G (60-mer) (mixed) RNA 1: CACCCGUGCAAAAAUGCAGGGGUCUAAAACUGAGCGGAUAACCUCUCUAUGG RNA 2: CCACAUCUACGAAUUCGUACCAUGGAGAGGUUAUCCGCUCACCGAGAUCGGAAGAGCACA shows kon of 200000 M⁻¹ s⁻¹ or higher.
RESULT: not fulfilled

QUERY: Hi, just wondering whether target 1 C4A (60-mer) (mixed) RNA 1: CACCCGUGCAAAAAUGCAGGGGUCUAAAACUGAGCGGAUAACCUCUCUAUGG RNA 2: CCACAUCUACGAAUUCGUACCAUAGAGAGGUUAUCCGAUCACCGAGAUCGGAAGAGCACA shows kon of 200000 M⁻¹ s⁻¹ or higher.
RESULT: fulfilled

QUERY: Hi, just wondering whether target 1 3'-UGG (60-mer) (mixed) RNA 1: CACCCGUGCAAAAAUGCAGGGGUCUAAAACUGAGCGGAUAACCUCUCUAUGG RNA 2: CCACAUCUACGAAUUCGUACCAUAGAGAGGUUAUCCGCUCAUGGAGAUCGGAAGAGCACA shows kon of 200000 M⁻¹ s⁻¹ or higher.
RESULT: not fulfilled

QUERY: Hi, just wondering whether target 1 C22A (60-mer) (mixed) RNA 1: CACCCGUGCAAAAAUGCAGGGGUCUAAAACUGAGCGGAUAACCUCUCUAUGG RNA 2: CCACAUCUACGAAUUCGUAACAUAGAGAGGUUAUCCGCUCACCGAGAUCGGAAGAGCACA shows kon of 200000 M⁻¹ s⁻¹ or higher.
RESULT: not fulfilled

QUERY: Hi, just wondering whether target 1 MT (60-mer) (mixed) RNA 1: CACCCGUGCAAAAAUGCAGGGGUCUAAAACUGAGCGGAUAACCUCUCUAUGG RNA 2: CCACAUCUACGAAUUCGUACCAUAGAGAGGUUAUCCGCUCACCGAGAUCGGAAGAGCACA shows kon of 200000 M⁻¹ s⁻¹ or higher.
RESULT: not fulfilled
